FYI, the data here is from patent US10100022B2.

Please go through the items and note down their pKi.
# measured_on: UniProt:Q9NYA1
# Sequence (Q9NYA1 whole entry): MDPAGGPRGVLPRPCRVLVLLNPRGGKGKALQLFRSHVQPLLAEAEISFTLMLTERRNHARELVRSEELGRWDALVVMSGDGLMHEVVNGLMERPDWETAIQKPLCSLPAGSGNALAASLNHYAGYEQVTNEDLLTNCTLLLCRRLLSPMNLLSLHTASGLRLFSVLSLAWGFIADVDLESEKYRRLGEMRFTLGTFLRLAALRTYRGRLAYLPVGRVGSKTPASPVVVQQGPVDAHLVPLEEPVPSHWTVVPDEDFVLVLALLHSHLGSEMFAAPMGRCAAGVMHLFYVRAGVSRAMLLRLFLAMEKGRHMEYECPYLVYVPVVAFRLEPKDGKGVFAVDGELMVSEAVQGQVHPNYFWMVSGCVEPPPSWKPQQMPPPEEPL
# assay_method_text: Sphingosine kinase assay, recombinant human SPHK1 ([32P]S1P product, scintillation counting)
# reported_conditions: read-out: activity hSPHK1 (range estimate of KI)
pKi: −log10 of the molar value. Structures can show the parent of a compound that is named as a salt.

# pKi of N=C(N)N1CCC[C@H]1c1nc(-c2ccc(OC/C=C\c3ccc(C(F)(F)F)cc3)c(C(F)(F)F)c2)no1 [Compound 92A, 2,2,2-trifluoroacetate] = < 5.00

# pKi of N=C(N)N1CC[C@H](O)[C@H]1c1nc(-c2ccc(CCc3ccc(C(F)(F)F)cc3)c(C(F)(F)F)c2)no1 [Compound 40A, hydrochloride] = 5.00 to 6.00

# pKi of COCCCCOc1ccc2cc(-c3noc([C@@H]4CCCN4C(=N)N)n3)ccc2c1 [Compound 65A] = < 5.00

# pKi of N=C(N)N1CCC[C@H]1c1nc(-c2ccc(CCC3CCCC3)c(C(F)(F)F)c2)no1 [Compound 44A, hydrochloride] = < 5.00

# pKi of CCCCCCCCc1ccc(-c2noc([C@@H]3CCCN3C(=N)N)n2)cc1C(F)(F)F [Compound 5A] = < 5.00

# pKi of N=C(N)N1CC[C@H](O)[C@H]1c1nc(-c2ccc(OCCc3ccc(C(F)(F)F)cc3)c(C(F)(F)F)c2)no1 [Compound 23A] = 5.00 to 6.00

# pKi of CCCCCOc1ccc2cc(-c3noc([C@@H]4[C@@H](O)CCN4C(=N)N)n3)ccc2c1 [Compound 14B] = > 6.00

# pKi of CCCCCCCCOc1ccc(-c2noc([C@@H]3CCCN3C(=N)N)n2)cc1Br [Compound 4B] = < 5.00

# pKi of CCCCCCCCOc1ccc(-c2noc([C@@H]3[C@H](O)CCN3C(=N)N)n2)cc1C(F)(F)F [Compound 10A] = < 5.00

# pKi of CCC/C=C\CCOc1ccc(-c2noc([C@@H]3CCCN3C(=N)N)n2)cc1C(F)(F)F [Compound 84A, 2,2,2-trifluoroacetate] = < 5.00

# pKi of N=C(N)N1CCC[C@H]1c1nc(-c2ccc(OCCCc3ccc(Cl)c(Cl)c3)c(C(F)(F)F)c2)no1 [Compound 30A] = < 5.00

# pKi of CCCCC=CCOc1ccc(-c2noc([C@@H]3CCCN3C(=N)N)n2)cc1C(F)(F)F [Compound 81A, 2,2,2-trifluoroacetate] = < 5.00

# pKi of N=C(N)N1CC[C@H](O)[C@H]1c1nc(-c2ccc(OCCCC3CCCCC3)c(C(F)(F)F)c2)no1 [Compound 95A] = 5.00 to 6.00

# pKi of N=C(N)N1CC[C@H](O)[C@H]1c1nc(-c2ccc(OCC3CCCCC3)c(C(F)(F)F)c2)no1 [Compound 96A] = > 6.00

# pKi of CCCc1ccc(CCc2ccc(-c3noc([C@@H]4CCCN4C(=N)N)n3)cc2C(F)(F)F)cc1 [Compound 35A, hydrochloride] = < 5.00

# pKi of N=C(N)N1CCC[C@H]1c1nc(-c2ccc3cc(OCCc4ccc(C(F)(F)F)cc4)ccc3c2)no1 [Compound 54A] = < 5.00

# pKi of CCCCCCCCOc1ccc(-c2noc([C@@H]3C[C@@H](O)CN3C(=N)N)n2)cc1C(F)(F)F [Compound 8A] = < 5.00

# pKi of C=CCCOc1ccc(-c2noc([C@@H]3CCCN3C(=N)N)n2)cc1C(F)(F)F [Compound 79A, hydrochloride] = < 5.00

# pKi of CCCCCCCCOc1ccc(-c2noc([C@@H]3CCCN3C(=N)N)n2)cc1C(F)(F)F [Compound 2B] = < 5.00

# pKi of CCCCCCCCCCn1ccc2ccc(-c3noc([C@@H]4CCCN4C(=N)N)n3)cc21 [Compound 18A] = < 5.00

# pKi of N=C(N)N1CCC[C@H]1c1nc(-c2ccc(OC/C=C/c3cccc(C(F)(F)F)c3)c(C(F)(F)F)c2)no1 [Compound 90A, 2,2,2-trifluoroacetate] = < 5.00

# pKi of CCCC/C=C/COc1ccc(-c2noc([C@@H]3CCCN3C(=N)N)n2)cc1C(F)(F)F [Compound 78A, 2,2,2-trifluoroacetate] = < 5.00

# pKi of CCCCc1ccc(CCc2ccc(-c3noc([C@@H]4[C@@H](O)CCN4C(=N)N)n3)cc2C(F)(F)F)cc1 [Compound 37A, hydrochloride] = 5.00 to 6.00

# pKi of CCCCCCCCCCCn1cc(-c2noc([C@@H]3CCCN3C(=N)N)n2)c2ccccc21 [Compound 4A] = < 5.00

# pKi of N=C(N)N1CCC[C@H]1c1nc(-c2ccc(OC/C=C/c3ccc(C(F)(F)F)cc3)c(C(F)(F)F)c2)no1 [Compound 88A, 2,2,2-trifluoroacetate] = < 5.00

# pKi of N=C(N)N1CC[C@H](O)[C@H]1c1nc(-c2ccc(OCCCCc3ccc(C(F)(F)F)cc3)c(C(F)(F)F)c2)no1 [Compound 25A] = > 6.00

# pKi of CCCCCCCCOc1ccc(-c2noc([C@@H]3C[C@H](F)CN3C(=N)N)n2)cc1C(F)(F)F [Compound 48A, 2,2,2-trifluoroacetate] = < 5.00

# pKi of N=C(N)N1C[C@H](O)C[C@H]1c1nc(-c2ccc(OCCCc3ccc(C(F)(F)F)cc3)c(C(F)(F)F)c2)no1 [Compound 33A] = < 5.00

----------
Please go through the items and note down their Ki.
# measured_on: human sphingosine kinase type 2 (hSPHK2) (Homo sapiens)
# Sequence (Q9NRA0 1-654): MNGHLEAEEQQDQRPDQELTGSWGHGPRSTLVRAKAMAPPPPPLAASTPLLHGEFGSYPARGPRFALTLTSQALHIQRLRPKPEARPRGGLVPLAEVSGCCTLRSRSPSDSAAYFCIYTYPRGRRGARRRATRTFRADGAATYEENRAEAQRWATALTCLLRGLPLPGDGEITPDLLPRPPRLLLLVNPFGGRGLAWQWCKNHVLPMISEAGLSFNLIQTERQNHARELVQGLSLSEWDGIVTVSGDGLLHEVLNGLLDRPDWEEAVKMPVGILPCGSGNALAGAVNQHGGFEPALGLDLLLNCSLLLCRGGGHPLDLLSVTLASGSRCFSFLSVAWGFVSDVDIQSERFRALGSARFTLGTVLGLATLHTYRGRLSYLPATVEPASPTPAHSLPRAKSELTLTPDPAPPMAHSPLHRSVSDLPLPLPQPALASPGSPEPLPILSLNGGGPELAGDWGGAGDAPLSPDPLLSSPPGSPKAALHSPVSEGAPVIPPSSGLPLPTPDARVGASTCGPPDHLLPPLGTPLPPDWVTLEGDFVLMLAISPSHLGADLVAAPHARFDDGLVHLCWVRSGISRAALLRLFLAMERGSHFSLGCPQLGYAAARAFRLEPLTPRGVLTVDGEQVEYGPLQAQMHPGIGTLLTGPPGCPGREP
# assay_method_text: Sphingosine kinase assay, recombinant human SPHK2 ([32P]S1P product, scintillation counting)
# reported_conditions: read-out: activity hSPHK2 (range estimate of KI)
Where a name gives a salt, the structure may show the parent alone.

# Ki of CCCCCCCCOc1ccc(-c2noc([C@@H]3CCCN3C(=N)N)n2)cc1F [Compound 11A] = > 10 µM

# Ki of N=C(N)N1CCC[C@H]1c1nc(-c2ccc(OC/C=C/c3ccccc3C(F)(F)F)c(C(F)(F)F)c2)no1 [Compound 89A, hydrochloride] = > 10 µM

# Ki of N=C(N)N1CCC[C@H]1c1nc(-c2ccc3cc(OCc4cccc(C(F)(F)F)c4)ccc3c2)no1 [Compound 67A] = 1 to 10 µM

# Ki of CCCCCCCOc1ccc2cc(-c3noc([C@@H]4CCCN4C(=N)N)n3)ccc2c1 [Compound 13A] = 1 to 10 µM

----------
Please go through the items and note down their pKi.
# measured_on: human sphingosine kinase type 2 (hSPHK2) (Homo sapiens, UniProt Q9NRA0)
# Construct: purchased; host or cells: Sf9 insect cells (baculovirus)
# assay_method_text: Sphingosine kinase assay, recombinant human SPHK2 ([32P]S1P product, scintillation counting)
# Assay type: biochemical
# reported_conditions: read-out: activity hSPHK2 (range estimate of KI)
pKi: −log10 of the molar value. Structures can show the parent of a compound that is named as a salt.

# pKi of N=C(N)N1CCC[C@H]1c1nc(-c2ccc(CCC3CCCCC3)c(C(F)(F)F)c2)no1 [Compound 76A, 2,2,2-trifluoroacetate] = > 6.00

# pKi of CCCCCCCCCCn1cc(-c2noc([C@@H]3CCCN3C(=N)N)n2)c2ccccc21 [Compound 7A] = > 6.00

# pKi of C=CCCOc1ccc(-c2noc([C@@H]3CCCN3C(=N)N)n2)cc1C(F)(F)F [Compound 79A, hydrochloride] = < 5.00

# pKi of CCCCc1ccc(CCc2ccc(-c3noc([C@@H]4[C@@H](O)CCN4C(=N)N)n3)cc2C(F)(F)F)cc1 [Compound 37A, hydrochloride] = > 6.00

# pKi of N=C(N)N1CCC[C@H]1c1nc(-c2ccc3cc(OCCc4ccc(C(F)(F)F)cc4)ccc3c2)no1 [Compound 54A] = < 5.00

# pKi of N=C(N)N1CC[C@H](O)[C@H]1c1nc(-c2ccc(OCCCc3ccc(C(F)(F)F)cc3)c(C(F)(F)F)c2)no1 [Compound 22A] = > 6.00

# pKi of N=C(N)N1CCC[C@H]1c1nc(-c2ccc(OCCCc3ccc4c(c3)OCCO4)c(C(F)(F)F)c2)no1 [Compound 29A] = < 5.00

# pKi of COc1ccc(CCc2ccc(-c3noc([C@@H]4[C@@H](O)CCN4C(=N)N)n3)cc2C(F)(F)F)cc1 [Compound 41A, hydrochloride] = > 6.00

# pKi of C=CCn1c(CCCOc2ccc(-c3noc([C@@H]4[C@@H](O)CCN4C(=N)N)n3)cc2C(F)(F)F)nc2ccccc21 [Compound 47A] = 5.00 to 6.00

# pKi of CCCC/C=C\CCOc1ccc(-c2noc([C@@H]3CCCN3C(=N)N)n2)cc1C(F)(F)F [Compound 85A, 2,2,2-trifluoroacetate] = > 6.00

# pKi of N=C(N)N1CC[C@H](O)[C@H]1c1nc(-c2ccc(OCCCCc3ccc(C(F)(F)F)cc3)c(C(F)(F)F)c2)no1 [Compound 25A] = > 6.00

# pKi of CCCCCCCCCc1ccc(-c2noc([C@@H]3CCCN3C(=N)N)n2)cc1C(F)(F)F [Compound 3B] = > 6.00

# pKi of N=C(N)N1CCC[C@H]1c1nc(-c2ccc3cc(OCCc4cccc(C(F)(F)F)c4)ccc3c2)no1 [Compound 60A] = < 5.00

# pKi of N=C(N)N1CCC[C@H]1c1nc(-c2ccc3cc(OCCc4ccccc4C(F)(F)F)ccc3c2)no1 [Compound 55A] = < 5.00
